Catalogue of composite z-score readings, one per entry.
# Experimental target: Epidermal growth factor receptor (Homo sapiens) (UniProt P00533)
# Sequence (P00533 whole entry, looked up): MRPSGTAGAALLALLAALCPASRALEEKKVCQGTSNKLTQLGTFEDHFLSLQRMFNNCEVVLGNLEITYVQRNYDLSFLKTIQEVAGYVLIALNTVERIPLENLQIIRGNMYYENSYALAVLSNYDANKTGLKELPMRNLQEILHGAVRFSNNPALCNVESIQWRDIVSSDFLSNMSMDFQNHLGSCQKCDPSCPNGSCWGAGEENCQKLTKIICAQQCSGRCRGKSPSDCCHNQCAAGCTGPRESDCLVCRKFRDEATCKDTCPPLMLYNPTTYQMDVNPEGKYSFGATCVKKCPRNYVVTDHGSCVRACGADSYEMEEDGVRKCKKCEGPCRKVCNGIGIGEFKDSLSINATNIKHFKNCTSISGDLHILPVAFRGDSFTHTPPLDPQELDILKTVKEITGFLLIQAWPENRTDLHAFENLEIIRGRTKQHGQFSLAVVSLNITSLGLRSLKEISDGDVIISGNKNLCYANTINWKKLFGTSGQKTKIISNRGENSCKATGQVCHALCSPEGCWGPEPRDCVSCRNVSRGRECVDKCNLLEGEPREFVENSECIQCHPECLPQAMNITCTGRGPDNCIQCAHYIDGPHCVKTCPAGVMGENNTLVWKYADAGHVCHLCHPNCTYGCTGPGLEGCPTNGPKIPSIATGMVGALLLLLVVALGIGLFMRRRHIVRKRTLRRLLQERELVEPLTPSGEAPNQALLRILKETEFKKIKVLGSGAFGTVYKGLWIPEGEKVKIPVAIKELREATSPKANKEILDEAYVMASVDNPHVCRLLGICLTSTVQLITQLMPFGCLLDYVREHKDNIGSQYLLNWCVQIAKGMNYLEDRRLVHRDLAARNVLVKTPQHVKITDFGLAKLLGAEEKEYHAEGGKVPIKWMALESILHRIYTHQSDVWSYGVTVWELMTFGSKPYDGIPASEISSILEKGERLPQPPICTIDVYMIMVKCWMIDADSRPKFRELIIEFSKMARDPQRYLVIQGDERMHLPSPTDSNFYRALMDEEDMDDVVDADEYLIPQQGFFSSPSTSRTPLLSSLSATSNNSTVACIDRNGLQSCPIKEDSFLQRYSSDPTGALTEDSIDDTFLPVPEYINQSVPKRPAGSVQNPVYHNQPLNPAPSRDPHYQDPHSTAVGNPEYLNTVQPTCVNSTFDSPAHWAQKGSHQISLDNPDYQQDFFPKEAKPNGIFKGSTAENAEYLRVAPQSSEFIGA
# Measurement notes: EGFR binders on small-molecule microarrays, primary screen, biochemical, small-molecule microarray, 635 nm fluorescence (AID 1104);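 note: score merges 667 nm emission intensity with spot signal to noise over triplicate slides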
# Run conditions: EGFR binding, higher = more signal
# answer = number (no unit)

Sample answers from the record:
CCOC(=O)[C@H](Cc1ccccc1)NC(=O)CCC1CC(OC(=O)NCCc2ccc(F)cc2)CC2(CCCC(COC(=O)NCCCN3CCCC3=O)O2)O1 (some centres undefined)
0.478
CO[C@H]1COC(=O)[C@@H](C)COC(=O)[C@@H](OCc2ccccc2)C=C[C@@H]1C
-0.0072
COC(=O)[C@H](C)NC(=O)CCC1CC(OC(=O)NCc2ccc3c(c2)OCO3)CC2(CCCC(COC(=O)NCC3CCCCC3)O2)O1 (some centres undefined)
0.621

Which composite z-score value belongs to COC(=O)CC=C[C@@H](C)[C@@H](C=NO[C@H](C)c1cn([C@H](CO)Cc2ccccc2)nn1)NS(=O)(=O)c1ccc(C)cc1 ? 0.264
